Recorded values, source ChEMBL document CHEMBL4385641.

target: Cannabinoid receptor 1 (Homo sapiens, UniProt P21554); experiment: Inverse agonist activity at human CB1 receptor expressed in CHOK1 cells co-expressing Galphaq16 assessed as apparent equilibrium constant after 90 secs by […]-4 AM dye-based FLIPR assay; format: cell-based
Sequence (P21554 whole entry): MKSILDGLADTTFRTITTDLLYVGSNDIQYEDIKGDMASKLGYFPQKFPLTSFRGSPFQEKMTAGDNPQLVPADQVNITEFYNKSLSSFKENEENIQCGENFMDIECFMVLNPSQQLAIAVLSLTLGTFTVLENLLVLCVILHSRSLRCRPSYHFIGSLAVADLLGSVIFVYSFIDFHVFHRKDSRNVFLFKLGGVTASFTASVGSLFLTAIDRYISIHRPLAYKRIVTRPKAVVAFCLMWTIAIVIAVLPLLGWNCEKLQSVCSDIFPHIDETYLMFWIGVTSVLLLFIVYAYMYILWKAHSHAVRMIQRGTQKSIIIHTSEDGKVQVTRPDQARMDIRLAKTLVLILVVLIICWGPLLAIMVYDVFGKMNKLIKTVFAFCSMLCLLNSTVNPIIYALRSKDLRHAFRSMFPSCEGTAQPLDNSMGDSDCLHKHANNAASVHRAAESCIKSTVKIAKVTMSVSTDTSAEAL
Listed molecules paired with reported log10(Ke(app))
READOUT: log10(Ke(app)) (log10 of the value in nM)

CC(C)(C)CC(=O)NC1CCN(c2ncnc3c2nc(-c2ccccc2Cl)n3-c2ccc(Cl)cc2)CC1 :: -0.52
CN(Cc1ccc(F)cc1)C1CCN(c2ncnc3c2nc(-c2ccccc2Cl)n3-c2ccc(Cl)cc2)CC1 :: 2.66
O=C(NC1CCN(c2ncnc3c2nc(-c2ccccc2Cl)n3-c2ccc(Cl)cc2)CC1)C1CCOCC1 :: 2.64
O=C(NC1CCN(c2ncnc3c2nc(-c2ccccc2Cl)n3-c2ccc(Cl)cc2)CC1)C1CCSCC1 :: 1.41
O=S(=O)(NC1CCN(c2ncnc3c2nc(-c2ccccc2Cl)n3-c2ccc(OC(F)F)nc2)CC1)c1ccc(F)c(F)c1 :: 0.20
Clc1ccc(-n2c(-c3ccccc3Cl)nc3c(N4CCC(c5nc6ccccc6[nH]5)CC4)ncnc32)cc1 :: 1.08
N=C(NC1CCN(c2ncnc3c2nc(-c2ccccc2Cl)n3-c2ccc(Cl)cc2)CC1)c1ccc(F)cc1 :: 2.23
COCCC(=O)NC1CCN(c2ncnc3c2nc(-c2ccccc2Cl)n3-c2ccc(Cl)cc2)CC1 :: 2.57
CN1CCC(COC(=O)NC2CCN(c3ncnc4c3nc(-c3ccccc3Cl)n4-c3ccc(Cl)cc3)CC2)CC1 :: 3.18
Clc1ccc(-n2c(-c3ccccc3Cl)nc3c(N4CCC(Nc5ccncc5)CC4)ncnc32)cc1 :: 2.00
CC(=O)Nc1ccc(-n2c(-c3ccccc3Cl)nc3c(N4CCC(NS(=O)(=O)c5ccc(F)c(F)c5)CC4)ncnc32)cn1 :: 3.43
O=S(=O)(CC1CCCCC1)NC1CCN(c2ncnc3c2nc(-c2ccccc2Cl)n3-c2ccc(Cl)cc2)CC1 :: 1.49
CCOCC(=O)NC1CCN(c2ncnc3c2nc(-c2ccccc2Cl)n3-c2ccc(Cl)cc2)CC1 :: 2.38
O=C(CC1CCOCC1)NC1CCN(c2ncnc3c2nc(-c2ccccc2Cl)n3-c2ccc(Cl)cc2)CC1 :: 2.71
Cn1ccc(-n2c(-c3ccccc3Cl)nc3c(N4CCC(NS(=O)(=O)c5ccc(F)c(F)c5)CC4)ncnc32)n1 :: 2.08
O=S(=O)(NC1CCN(c2ncnc3c2nc(-c2ccccc2Cl)n3-c2ccc(Cl)cc2)CC1)c1ccc(F)c(F)c1 :: -0.30
